biological target: T1, cynomolgus monkey PILRA extracellular domain (recombinant) (cynomolgus monkey); experiment: SPR, Biacore 8K, recombinant ECD
T1 construct: also called cynoPILRA; Cyno PILRA
T1 sequence (chain, as listed by the source limits assumed): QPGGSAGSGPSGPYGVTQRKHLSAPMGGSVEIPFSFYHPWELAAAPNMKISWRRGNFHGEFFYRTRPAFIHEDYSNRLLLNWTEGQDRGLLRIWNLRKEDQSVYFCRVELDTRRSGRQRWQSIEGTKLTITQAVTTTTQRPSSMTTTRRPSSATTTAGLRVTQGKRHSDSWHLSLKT
measurementType: binding result

Look up and state reported binding result for Reference Antibody #2 (antibody, human IgG1, kappa, L234A L235A, V domains shown) VH: QVILKESGPGILQSSQTLSLTCSFSGFSLSTFGMGVGWIRQPSGKGLESLAHIWWDDDKFYNPALKSRLTISKDTSKSQVFLKIANVDTADIATYYCTRIEDYGSYFAYWGQGTTLTVSS VL: DVQMNQSPSSLSASLGDPITITCHASQNIHVWLNWYQQRPGNIPRLLIYKASNLHTGVPSRFSGSGSGTGFTLTISSLQPEDIATYYCQQGQSYPYTFGGGTKLEIKR no binding

Please report the measured binding result for Anti-PILRA antibody clone 9 (antibody, V domains shown, also called Ab; Clone 9) VH: QVQLQESGPGLVKPSGTLSLTCAVSGGSISSNNWWSWVRQPPGKGLEWIGEIYHFGTTTYNPSLKSRVTISVDKSKNQFSLKLSSLTAADTAVYYCARTLRDFYYYMDVWGKGTTVTVSS VL: DIHMTQSPSSLSASVGDRVTITCRTSQNINTYLNWYQQRPGRAPKLLIYAASSLQSGVPSRFSGSGSGTDFILSISSLQPEDFATYYCQQSFNIPLTFGGGTKVEIK no binding

Please supply the value of reported binding result for the item Reference Antibody #1 (antibody, human IgG1, kappa, L234A L235A, V domains shown) VH: QVTLQESGPGILQPSQTLSLTCSFSGFSLSTFGMGVGWIRQPSGKGLEWLAHIWWDDDKYYNPALKSRLTISKDTSKNQVFLKIASVDTADIATYYCARVEDYGNPFDYWGQGTTLTVSS VL: DIQMNQSPSSLSASLGDTITITCHASQNIHVWLNWYQQKPGNIPKLLIYKASNLHTGVPSRFSGSGSGTGFTVTISSLQPEDIATYYCQQGQSYPLTFGAGTKLELKR no binding
